- Tested on: Actinomyces naeslundii
- test-summary: Antimicrobial activity against Actinomyces naeslundii after 48 hrs by agar dilution method
- Format: functional

| compound | MIC50 |
| --- | --- |
| O=C(N[C@H](CO)[C@H](O)c1ccc([N+](=O)[O-])cc1)C(Cl)Cl [CHLORAMPHENICOL] | 1 µg/mL |
| COc1c(N2C[C@@H]3CCCN[C@@H]3C2)c(F)cc2c(=O)c(C(=O)O)cn(C3CC3)c12 [MOXIFLOXACIN] | 1 µg/mL |
| CCN1CCN(C(=O)N[C@@H](C(=O)N[C@@H]2C(=O)N3[C@@H]2SC(C)(C)[C@@H]3C(=O)O)c2ccccc2)C(=O)C1=O [PIPERACILLIN] | 1 µg/mL |
